Let's look at some molecules and their measured cytotoxicity at 10 µM.
- experiment.description: Toxicity liver stage against HepG2, at 10uM
- Assay type: cell-based
- Design: test concentration 10 uM, cell line HepG2-A16-CD81EGFP
- study.conditions: human, HepG2-A16-CD81EGFP cells; read-out: INHIBITION
measured.attribute: cytotoxicity at 10 µM (%)

> print(dat)
                                    molecule     measured.attribute  measure.unit  observed
 1            O=C(Cn1ccc2ncccc2c1=O)N1CCCCC1  cytotoxicity at 10 µM             %        -7
 2  CCS(=O)(=O)N1Cc2nccn2CC(Cn2cncn2)C1 (stereo not given)  cytotoxicity at 10 µM             %      7.21
 3  CC(C)CN1CC[C@H](c2nnc(COc3ccc(F)cc3)o2)C1  cytotoxicity at 10 µM             %     -1.81
 4    CN(C)c1ncccc1CNS(=O)(=O)c1cc(F)cc(F)c1  cytotoxicity at 10 µM             %       -14
 5  Cc1ccc(C2CCCCCN2C(=O)Nc2cn[nH]c2)o1 (stereo not given)  cytotoxicity at 10 µM             %      5.16
 6     Brc1cc2c(cc1CN1CCC(N3CCCCC3)CC1)OCCO2  cytotoxicity at 10 µM             %      50.1
 7  COc1cccc(OC)c1CN1CCC2(CC(Nc3ccncn3)C2)C1 (stereo not given)  cytotoxicity at 10 µM             %      3.71
 8  C[C@@H]1CN(Cc2nc(Cc3ccccc3F)no2)C[C@H](C)O1  cytotoxicity at 10 µM             %      6.74
 9  CN(C)S(=O)(=O)c1ccc(-c2nc(C#N)c(NC3CCCCC3)o2)o1  cytotoxicity at 10 µM             %       -16
10  CC(=O)c1cnc(NCCN2CCCC(c3ccccc3)C2)nc1C (stereo not given)  cytotoxicity at 10 µM             %     -3.44
11  CC(C)(C)c1nc(CN2CCN(C(=O)c3cnccn3)CC2)cs1  cytotoxicity at 10 µM             %     -5.92
12  CCS(=O)(=O)N1CCN(C(=O)NC(C)C)CC2(CC(=O)N(C)C2)C1 (stereo not given)  cytotoxicity at 10 µM             %      6.62
13  Cc1nn(C)c2nc(N(C)CC3CCN(CC(C)C)C3)sc12 (stereo not given)  cytotoxicity at 10 µM             %     -8.13
14  CN1CCC(N(C)C(=O)c2cnn(-c3ccccc3Br)c2N)CC1  cytotoxicity at 10 µM             %     -5.63
15       O=c1ccc(-c2cccs2)nn1CN1CCc2ccccc2C1  cytotoxicity at 10 µM             %      14.3
16  O=C(CCCc1ccccn1)NCC(O)c1c(F)cccc1F (stereo not given)  cytotoxicity at 10 µM             %     -7.85
17  COc1ccc(CNC(C)Cn2cccn2)cc1F (stereo not given)  cytotoxicity at 10 µM             %    -0.544
18  CCc1ccccc1Nc1noc2c1CN(C(=O)c1ccn(C)n1)CC2  cytotoxicity at 10 µM             %     0.295
19  O=C1CSc2ccccc2N1CC(=O)N1CCCCC1c1nccs1 (stereo not given)  cytotoxicity at 10 µM             %      14.4
20      CCc1nc(CN2CCCN(c3ncnc4sccc34)CC2)no1  cytotoxicity at 10 µM             %      59.9
